z-score by entry:
TEST: basal MM1S mitochondrial membrane potential changes, profiling panel, cell-based, JC-1 fluorescence, 24 h, 100 nL compound (AID 1170)
STATED CONDITIONS: higher = more signal
Lab note: record just the number, no unit beside it.

// known answers, use as guide
>  <COMPOUND>
CC(=O)NCCCC[C@@H]1NC(=O)[C@@H]2C[C@H](C(=O)NCCCCCCN(C)C)[C@H](c3ccc(O)cc3)N2C1=O

>  <z-score>
0.925

$$$$
>  <COMPOUND>
C=CC[C@@]1(C(=O)NCC(O)CO)N=C(c2ccc(OCCCO)cc2)O[C@@H]1c1ccccc1CN=[N+]=[N-] (some centres undefined)

>  <z-score>
-0.873

$$$$
>  <COMPOUND>
COC(=O)[C@@]1(Cc2ccccc2)[C@H]2c3cc(C(=O)N4CCCC4)n(CCN4CNCC4=O)c3C[C@H]2CN1C(=O)c1ccccc1

>  <z-score>
-0.777

$$$$

Consider now this further compound.
z-score lookup needed for CCC(=O)[C@]12O[C@@]3([C@@H]4C(=O)OCC[C@@H]41)N(Cc1ccccc1)C(C)=C(C(=O)OC)[C@@H](c1ccccc1)N3C2=O , thanks.
-0.226

---

Tested on: XIP peptide (Xip251-270)
TEST: small-molecule binders of XIP peptide, primary screen, biochemical, small-molecule microarray, fluorescence 635/667 nm, 0.5 µg/mL protein (AID 1183)
STATED CONDITIONS: small-molecule microarray binding, fluorescence 635 nm; higher = more signal
EXPERIMENTAL READOUT: composite z-score
Lab note: record just the number, no unit beside it.

>  <COMPOUND>
COc1cc([C@@H]2N[C@H](C(=O)O)Cc3c2[nH]c2ccccc32)cc(OC)c1OC

>  <EXPERIMENTAL READOUT>
composite z-score

>  <OBSERVED>
0.564

$$$$
>  <COMPOUND>
C=CC[C@]1(C(=O)O)N=C(c2ccc(OCCCO)cc2)O[C@H]1c1ccccc1N=[N+]=[N-]

>  <EXPERIMENTAL READOUT>
composite z-score

>  <OBSERVED>
-0.519

$$$$
>  <COMPOUND>
CC1=C([C@H](O)CCc2ccccc2)[C@H](CO)[C@@H]2C(=O)N(Cc3ccccc3)C(=O)[C@@H]2C1

>  <EXPERIMENTAL READOUT>
composite z-score

>  <OBSERVED>
-0.0644

$$$$
>  <COMPOUND>
Cc1ccc(S[C@]2(C(=O)NCCCN(C)C)CC(=O)N(C3CCCCC3)[C@@H]2c2ccc(CO)cc2I)cc1

>  <EXPERIMENTAL READOUT>
composite z-score

>  <OBSERVED>
-0.697

$$$$
>  <COMPOUND>
C[C@@H]1NC(=O)[C@H](Cc2ccccc2)NC(=O)[C@@]23C(=O)N[C@@H](Cc4ccccc4)C2[C@H](C)[C@@]2(C)O[C@H]2C3/C=C/C/C=C\CNC1=O (stereo partly drawn)

>  <EXPERIMENTAL READOUT>
composite z-score

>  <OBSERVED>
0

$$$$

composite z-score lookup needed for C=C[C@H](OC)[C@@H](OC(=O)Nc1ccc(SC)cc1)c1ccc(OC)c(O)c1 , thanks.
0.0001

composite z-score lookup needed for CCCC=C(CCC)[C@@H](NC(=O)c1ccc(C(F)(F)F)cc1)c1ccccc1 , thanks.
0.144

composite z-score lookup needed for C#C[C@H](O[Si](C#Cc1ccccc1)(C(C)C)C(C)C)c1ccccc1 , thanks.
0.311

---

TESTED TARGET: Pro-neuregulin-1, membrane-bound isoform (Homo sapiens) (UniProt Q02297)
Sequence (Q02297 whole entry, looked up, canonical isoform): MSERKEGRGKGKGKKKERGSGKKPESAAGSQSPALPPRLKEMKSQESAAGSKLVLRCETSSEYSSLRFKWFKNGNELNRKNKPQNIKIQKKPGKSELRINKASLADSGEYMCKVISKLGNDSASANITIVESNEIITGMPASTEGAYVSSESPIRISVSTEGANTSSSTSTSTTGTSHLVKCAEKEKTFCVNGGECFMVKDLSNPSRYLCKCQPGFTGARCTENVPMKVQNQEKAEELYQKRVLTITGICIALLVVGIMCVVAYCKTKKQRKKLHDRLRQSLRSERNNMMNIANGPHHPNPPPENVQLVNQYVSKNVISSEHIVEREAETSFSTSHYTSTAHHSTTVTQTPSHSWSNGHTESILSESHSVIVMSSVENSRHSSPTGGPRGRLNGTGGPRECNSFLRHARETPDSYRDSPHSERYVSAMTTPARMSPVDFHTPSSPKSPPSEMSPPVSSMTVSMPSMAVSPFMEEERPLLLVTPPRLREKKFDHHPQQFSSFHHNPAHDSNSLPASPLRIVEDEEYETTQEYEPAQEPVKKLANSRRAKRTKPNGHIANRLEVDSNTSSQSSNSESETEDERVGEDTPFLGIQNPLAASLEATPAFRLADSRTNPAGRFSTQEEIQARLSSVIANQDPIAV
TEST: NRG1 binders on small-molecule microarrays, primary screen, psychiatric disease protein project, biochemical, small-molecule microarray, fluorescence 635/667 (AID 1075);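 further: score combines 667 nm spot fluorescence with signal to noise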
STATED CONDITIONS: NRG1 binding, 635 nm fluorescence, higher = more signal
Given measured composite z-score, output 1 if it is greater than or equal to 0.5 and 0 if not.

>  <COMPOUND>
C=CCNC(=O)[C@H]1[C@@H]2C(=O)O[C@@H](c3ccccc3)[C@@H](c3ccccc3)N2[C@@H](c2ccc(O)cc2)[C@]12C(=O)Nc1ccc(C#CCNC(N)=O)cc12

>  <CLASS NAME>
1

$$$$

API: above_or_equal(metric=composite z-score, cutoff=0.5) for item CCCNC(=O)[C@@H]1c2ccccc2C(=O)N(C2CCCCC2)[C@H]1c1ccc(CO)cc1
1

API: above_or_equal(metric=composite z-score, cutoff=0.5) for item C=CCN1C(=O)[C@]2(O[C@H](CCn3cc(CCO)nn3)[C@@H]([Si](C)(C)c3ccc(OC)cc3)[C@@H]2C)c2cc(NC(=O)c3ccc(OC)cc3)ccc21
0

API: above_or_equal(metric=composite z-score, cutoff=0.5) for item COc1ccc([Si](C)(C)[C@H]2[C@H](CCO)O[C@@]3(C(=O)N(Cc4ccccc4)c4ccc(N5C(=O)c6cccc7cccc5c67)cc43)[C@@H]2C)cc1
0

API: above_or_equal(metric=composite z-score, cutoff=0.5) for item CC(=O)NCCCC[C@@H]1NC(=O)[C@@H]2C[C@H](C(=O)NCCCCCNC(=O)CS)[C@H](c3ccc(O)cc3)N2C1=O
0

API: above_or_equal(metric=composite z-score, cutoff=0.5) for item C=CCC(OC(C)=O)[C@@H]1[C@@H](N(Cc2ccc(-c3ccccc3)cc2)C(=O)c2ccc(-c3ccccc3)cc2)c2cc(OCCCO)ccc2N1C(=O)Cc1ccc(OC)cc1 (stereo partly drawn)
0

API: above_or_equal(metric=composite z-score, cutoff=0.5) for item CO[C@@H]1COC(=O)CC=C[C@H](C)COC(=O)[C@H](Cc2ccccc2)NC(=O)CC=C[C@H]1C
0

API: above_or_equal(metric=composite z-score, cutoff=0.5) for item CN1C(=O)C2C=CC(C(O)C3CC=CCC3)N(Nc3ccccc3)C2C1=O (stereo not drawn)
1

API: above_or_equal(metric=composite z-score, cutoff=0.5) for item CC(C)[C@H]1NC(=O)[C@@]23C(=O)N[C@@H](Cc4ccccc4)C2[C@H](C)[C@@]2(C)O[C@H]2C3/C=C/C/C=C\CNC(=O)[C@H](C)NC1=O (stereo partly drawn)
0

API: above_or_equal(metric=composite z-score, cutoff=0.5) for item CC(C)C[C@@H]1NC(=O)[C@H](CC(C)C)NC(=O)[C@@]23C(=O)N[C@@H](Cc4ccccc4)C2[C@H](C)[C@@]2(C)O[C@H]2C3/C=C/CC/C=C/CNC1=O (stereo partly drawn)
1

API: above_or_equal(metric=composite z-score, cutoff=0.5) for item CO[C@H]1COC(=O)[C@@H](OCc2ccccc2)C=C[C@H](C)[C@@H](OC)COC(=O)[C@H](OCc2ccccc2)C=C[C@@H]1C
0

API: above_or_equal(metric=composite z-score, cutoff=0.5) for item Cc1ccc([C@@H]2CC=C(C(=O)O)[C@H](c3ccccc3)N2S(=O)(=O)c2ccc(C)cc2)cc1
1

API: above_or_equal(metric=composite z-score, cutoff=0.5) for item COC(=O)C(CC#Cc1ccc2c(c1)[C@]1(C(=O)N2)[C@H](C(=O)N2CCCCCCC2)[C@H]2C(=O)O[C@H](c3ccccc3)[C@H](c3ccccc3)N2[C@@H]1c1ccc(O)cc1)C(=O)OC
0

---

composite z-score by entry:
TESTED TARGET: Torsin-1A (Homo sapiens) (UniProt O14656)
Sequence (O14656 whole entry, looked up): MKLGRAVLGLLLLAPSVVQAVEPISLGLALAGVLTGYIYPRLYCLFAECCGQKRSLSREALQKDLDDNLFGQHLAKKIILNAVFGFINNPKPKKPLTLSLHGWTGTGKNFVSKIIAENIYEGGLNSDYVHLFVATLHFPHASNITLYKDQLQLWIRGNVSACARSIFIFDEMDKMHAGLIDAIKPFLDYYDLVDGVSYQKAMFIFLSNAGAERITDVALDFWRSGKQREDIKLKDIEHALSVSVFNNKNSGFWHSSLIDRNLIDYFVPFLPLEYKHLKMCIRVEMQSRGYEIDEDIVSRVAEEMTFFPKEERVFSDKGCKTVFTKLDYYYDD
TEST: torsin A binders from cell lysate, primary screen, small-molecule microarray, wild-type, 635/667 nm (AID 1149)
STATED CONDITIONS: COS7 hTOR1A-WT lysate, 635 nm fluorescence, higher = more signal
Lab note: record just the number, no unit beside it.

// known answers, use as guide
>  <SMILES STRUCTURE>
Cc1ccc(S[C@]2(C(=O)NC(C)C)CC(=O)N(Cc3cc(C(F)(F)F)cc(C(F)(F)F)c3)[C@@H]2c2ccc(CO)cc2I)cc1

>  <composite z-score>
0.61

$$$$
>  <SMILES STRUCTURE>
COCCOC(=O)N1C(=O)[C@@]2(c3cc(C#CC4=CCCCC4)ccc31)[C@H](c1ccc(O)cc1)N1[C@H](c3ccccc3)[C@H](c3ccccc3)OC(=O)[C@H]1[C@@H]2C(=O)N1CCCCCCC1

>  <composite z-score>
0.588

$$$$
>  <SMILES STRUCTURE>
CCCC[C@@H]1C[C@H]1[C@@H](NC(=O)c1cccs1)c1ccc(Cl)cc1

>  <composite z-score>
-0.989

$$$$

Consider now this further compound.
composite z-score lookup needed for CCOC(=O)C[C@H]1[C@H](OC(=O)Cc2ccc3c(c2)OCO3)[C@@H](NC(=O)c2ccc3ccccc3c2)c2cc(OCCCO)ccc2N1C(=O)Cc1ccc(OC)cc1 , thanks.
0.242

---

TESTED TARGET: Torsin-1A-interacting protein 2 (Homo sapiens) (UniProt Q8NFQ8)
Sequence (Q8NFQ8 whole entry, looked up): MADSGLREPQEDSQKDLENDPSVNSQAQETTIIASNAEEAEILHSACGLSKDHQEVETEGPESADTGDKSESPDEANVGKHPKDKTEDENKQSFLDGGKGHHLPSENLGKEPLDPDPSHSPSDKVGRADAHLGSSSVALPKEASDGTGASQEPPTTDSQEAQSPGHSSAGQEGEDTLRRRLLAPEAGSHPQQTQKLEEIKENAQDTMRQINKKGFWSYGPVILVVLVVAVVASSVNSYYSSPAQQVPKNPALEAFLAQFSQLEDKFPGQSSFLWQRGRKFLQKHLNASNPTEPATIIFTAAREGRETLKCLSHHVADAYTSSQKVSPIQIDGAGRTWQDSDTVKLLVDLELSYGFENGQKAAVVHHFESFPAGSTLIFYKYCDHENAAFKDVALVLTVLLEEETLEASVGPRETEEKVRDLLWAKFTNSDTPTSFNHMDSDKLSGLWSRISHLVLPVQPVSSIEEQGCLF
TEST: LULL1 binders on small-molecule microarray, primary screen, cell lysate, human LULL1 lysate, 635/667 nm fluorescence (AID 1092);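 further: probe is lysate of COS7 cells overexpressing human LULL1; score merges per-feature 667 nm fluorescence with signal-to-noise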
STATED CONDITIONS: hLULL1 lysate binding, 635 nm fluorescence, higher = more signal
EXPERIMENTAL READOUT: composite z-score
Lab note: record just the number, no unit beside it.

composite z-score lookup needed for Cc1ccc(N2C(=O)c3ccccc3[C@](C)(C(=O)NCC(C)C)[C@@H]2c2ccc(CO)cc2)nc1 , thanks.
-1.71

composite z-score lookup needed for C[C@H]1COC(=O)[C@H](Cc2ccccc2)NC(=O)[C@@H](C)COC(=O)[C@H](Cc2ccccc2)NC1=O , thanks.
1.92

composite z-score lookup needed for C=CCC(OC(C)=O)[C@@H]1[C@@H](N(Cc2ccc(-c3ccccc3)cc2)C(=O)c2ccc(C)cc2)c2cc(OCCCO)ccc2N1C(=O)c1ccc(-c2ccccc2)cc1 (some centres undefined) , thanks.
0.554

composite z-score lookup needed for CN(C)c1ccc(C(O)C2C=CC3C(=O)NC(=O)C3N2Nc2ccc(Cl)cc2Cl)cc1 (centres undefined) , thanks.
2.58
